Give measured %Inh for each item. Keep answers brief.
Tested on: DCAMKL3
Construct: gene DCLK3
CONDITION_DESCRIPTION: concentration: 1 μM, replicates: in singlicate; n = 1;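 note: KINOMEscan kinase panel screen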
Numbers only, in %.

Observe how each entry below is paired with its result.
Prompt: %Inh for COc1cc2ncn(-c3cc(OCc4ccc(S(C)(=O)=O)cc4)c(C(N)=O)s3)c2cc1OC ?
Completion: 0

Prompt: For the compound shown here, Cc1nnc(-c2ccc3ncn(-c4ccc(S(C)=O)cc4)c3c2)o1 (centres unmarked) , give the reported %Inh.
Completion: 9

Prompt: %Inh lookup needed for COc1cccc(C2=C(Nc3cccc(C(=O)O)c3)C(=O)NC2=O)c1 , thanks.
Completion: 13

Prompt: # lookup: %Inh of Cc1nnc(-c2ccc(C)c(-c3ccc(C(=O)O)cc3)c2)o1
Completion: 0

Prompt: What does the record list as %Inh for Cc1cc(Nc2nc(-c3cccc(C)n3)nc3ccccc23)ccn1 ?
Completion: 0

For every listed record, write down its %Inh.
1. COc1ccc(-c2cc3c(C)nc(N)nc3n([C@H]3CC[C@H](O)CC3)c2=O)cn1
2. COc1cc2ncn(-c3cc(OCc4ccncc4)c(C(N)=O)s3)c2cc1OC
3. COc1cc(OC)cc(-c2cc3cnc(N)nc3nc2NC(=O)NC(C)(C)C)c1
4. COc1cc2ncn(-c3cc(OCc4ccncc4Br)c(C(N)=O)s3)c2cc1OC

Completion:
1: 0; 2: 55; 3: 0; 4: 0

Please give %Inh, item by item, for the list that follows.
1. C[C@@H]1CC[C@H](C(=O)NC2CCCCC2)CN1c1cc(-c2ccc3c(N)n[nH]c3c2)nc(N)n1
2. CC(C)(C)c1ccc(C(=O)Nc2cn3cc(-c4ccccc4)ccc3n2)cc1

Completion:
[0, 21]

----------
Tested on: CLK1
CONDITION_DESCRIPTION: concentration: 1 μM, replicates: in singlicate; n = 1
Would you mind classing the entries by %Inh? Ranges: band 1 = under 10%, band 2 = from 10% up to 20%, band 3 = 20% and over

Solved entries (count: 6):
Prompt: Category lookup for the compound FC(F)(F)c1ccc(-c2ncn(CCCN3CCOCC3)c2-c2ccncc2)cc1 [SB-217780]
Completion: band 2

Prompt: # classify by %Inh band: CCc1nc(-c2cccc(C)c2)c(-c2ccncc2)s1
Completion: band 2

Prompt: Field: class (%Inh) — entry: Cc1cccc(-c2cc(-c3c[nH]nc3-c3ccccn3)ccn2)c1 [GW679395]
Completion: band 2

Prompt: Categorize the following entry: Nc1ncnc2c1ncn2-c1ccc(Cl)cc1 [AH2635]
Completion: band 3

Prompt: Just checking, what class would you give CCS(=O)(=O)c1ccc(OC)c(Nc2ncc(-c3ccc(F)cc3)o2)c1.Cl [GW591947] here?
Completion: band 3

Prompt: For this compound, which bin applies? COc1cc2ncn(-c3cc(OCCCc4ccccc4)c(C(N)=O)s3)c2cc1OC [GSK205189]
Completion: band 2

Others:
Prompt: State the class of the compound shown: CCn1c(-c2ccoc2)nc2cnccc21 [SB-733887]
Completion: band 3

Prompt: Each compound maps to one class by %Inh. Which class for CN(C)c1cc(-c2ccc3c(N)n[nH]c3c2)nc(N)n1 [GSK2219329] ?
Completion: band 3

Prompt: Which %Inh band matches CCC(=O)c1c(-c2ccccc2)c2cc(Cl)ccc2c(=O)n1Cc1cc(S(C)(=O)=O)n(CCC(C)(C)O)n1 ?
Completion: band 1

Prompt: Just checking, what class would you give COc1cc2nccc(Nc3ccc(OCc4ccc(NC(C)=O)cc4)cc3)c2cc1OC.Cl [GW440135] here?
Completion: band 1

Prompt: Kindly identify the class of COc1cc(OC)cc(-c2cc3cnc(N)nc3nc2NC(=O)NC(C)(C)C)c1 .
Completion: band 3

Prompt: Into which bin does this compound go? COc1cc(Nc2nccc(N3CCC(NC(=O)C(C)c4ccc(Cl)cc4)C3)n2)cc(OC)c1OC (stereo not shown) [GSK1379757]
Completion: band 3
